Test system: Escherichia coli K-12 BW25113
Assay: relative growth (OD600 normalised to plate interquartile mean) (fraction); higher = less growth inhibition, active = 0.2 or less
Conditions: 50 µM; LB; incubation time: overnight (16-24 h)
Screen size: about 39,000 compounds; about 220 (0.56%) showed activity. This excerpt belongs to a sample that is enriched for actives.
experimental.readout: relative growth
Answers are plain numbers.

Worked examples, 2 molecules total:
>>> data_value("CCN1CCN(CC(=O)Nc2ccc(-c3cccc4c(=O)cc(N5CCOCC5)oc34)c3sc4ccccc4c23)CC1")
0.981
>>> data_value("CC(O)C1C(=O)N2C(C(=O)O)=C(SC3CNC(C(=O)N(C)C)C3)C(C)C12 (stereo unspecified)")
0.0517

Hello, I would appreciate it if you could give relative growth for each entry below.
1. CCCCCOc1ccc(-c2cc(-c3ccc(C(=O)N[C@H]4C[C@@H](O)[C@@H](O)NC(=O)[C@H]5[C@@H](O)[C@@H](C)CN5C(=O)[C@H]([C@@H](O)CC(N)=O)NC(=O)[C@H]([C@@H](O)[C@@H](O)c5ccc(O)c(OS(=O)(=O)O)c5)NC(=O)[C@H]5C[C@@H](O)CN5C(=O)[C@H]([C@@H](C)O)NC4=O)cc3)no2)cc1
2. COc1ccc(NC(=O)N(C)C[C@H]2Oc3c(NS(=O)(=O)c4c(C)noc4C)cccc3C(=O)N([C@H](C)CO)C[C@H]2C)cc1
3. CC(C)NC(=O)N[C@H]1CC[C@H](CCN)O[C@@H]1CO

Solution:
[0.952, 0.994, 0.987]

Problem: Return relative growth measured with Escherichia coli K-12 BW25113 given this molecule: C=C(CC[C@@H](C)[C@H]1CC[C@@]2(C)C3=C(C[C@H](O)[C@]12C)[C@@]1(C)CC[C@@H](OC(=O)CC(=O)O)C(C)(C)[C@@H]1CC3)[C@@H](C)C(=O)O
Solution: 0.89

---

System: Escherichia coli K-12 BW25113;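 also: Wild-type cells incubated without shaking, value is the mean of two biological replicates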
Experiment: relative growth (OD600 normalised to plate interquartile mean) (fraction); higher = less growth inhibition, active = 0.2 or less
Conditions: 50 µM; LB; incubation time: overnight (16-24 h)
Hit rate of the full screen: of about 39,000 compounds, about 220 (0.56%) showed activity. This excerpt belongs to a sample that is enriched for actives.
experimental.readout: relative growth
One number for each entry.

Hello, I would appreciate it if you could give relative growth for each entry below.
1. CCN1CCN(C(=O)N[C@@H](C(=O)N[C@@H]2C(=O)N3[C@@H]2SC(C)(C)[C@@H]3C(=O)O)c2ccccc2)C(=O)C1=O
2. CC1CCC2(C)C(C=O)=CCCC2C1(C)CC1OC(O)C(=O)C12CO2 (configuration not stated)
3. Cc1noc(C)c1NC(=O)N(C)C[C@H]1OCCCC[C@H](C)Oc2ccc(NC(=O)c3ccccc3)cc2C(=O)N([C@@H](C)CO)C[C@H]1C
4. CC1(C)S[C@@H]2[C@H](NC(=O)[C@H](NC(=O)N3CCNC3=O)c3ccccc3)C(=O)N2[C@H]1C(=O)O
5. CC1(C)SC2C(NC(=O)C(C(=O)[O-])c3ccccc3)C(=O)N2C1C(=O)[O-].[Na+].[Na+] (configuration not stated)
6. CC1(C)S[C@H]2[C@@H](NC(=O)[C@@H](NC(=O)N3CCN(S(C)(=O)=O)C3=O)c3ccccc3)C(=O)N2[C@@H]1C(=O)O

Solution:
1. 0.606
2. 0.0462
3. 0.98
4. 0.0984
5. 1.1
6. 0.237

Problem: Return relative growth measured with Escherichia coli K-12 BW25113 given this compound: COc1ccc(NC(=O)Nc2ccc3c(c2)CC(=O)N([C@H](C)CO)C[C@@H](C)[C@@H](CN(C)S(=O)(=O)c2c(C)noc2C)O3)cc1
Solution: 0.969
